Here, each record is paired with measured Kd data.
# SYSTEM: JAK2 JH1 kinase domain (Homo sapiens)
# Sequence (O60674 849-1124 limits assumed): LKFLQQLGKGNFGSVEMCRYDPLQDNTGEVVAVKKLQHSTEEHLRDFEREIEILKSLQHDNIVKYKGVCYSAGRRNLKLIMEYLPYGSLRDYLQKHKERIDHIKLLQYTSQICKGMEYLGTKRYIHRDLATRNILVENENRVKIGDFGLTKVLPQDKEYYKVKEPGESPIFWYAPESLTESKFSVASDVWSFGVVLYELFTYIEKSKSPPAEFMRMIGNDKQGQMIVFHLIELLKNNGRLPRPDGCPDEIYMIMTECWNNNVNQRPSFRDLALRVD
# EXPERIMENTAL DETAILS: KdELECT competition binding assay, JAK2 JH1
# CONDITION PARAMETERS: read-out: JAK Binding Selectivity (Kd) Catalytical Domain (JH1) JAK2
Dear colleague, please return just the value in µM, with no unit written.

INPUT SMILES | MEASUREMENT UNIT | Kd
[2H]C([2H])([2H])NC(=O)c1nnc(NC(=O)N2CCC2)cc1Nc1cccc(-c2ncn(C)n2)c1OC | µM | 2

Consider the additional compound presented here.
Task item: Which value of Kd has been reported for CNC(=O)c1nnc(NC(=O)N2CCC2)cc1Nc1cccc(-c2ncn(C)n2)c1OC in the records?
Reply: 6.5

###

A set of compounds tested on CYP450 2D6 (Homo sapiens, UniProt P10635), with measured IC50:

COMPOUND | VALUE MEASURED
[2H]C([2H])([2H])NC(=O)c1nnc(NC(=O)N2CCC2)cc1Nc1cccc(-c2ncn(C)n2)c1OC [SHR9332] | > 30 µM

Task item: Which value of IC50 has been reported for CNC(=O)c1nnc(NC(=O)C2CC2)c2[nH]c(-c3ccc(N)cc3OC)cc12 [SHR2396] in the records?
Reply: > 30 µM

Task item: Which value of IC50 has been reported for CNC(=O)c1nnc(NC(=O)N2CCC2)cc1Nc1cccc(-c2ncn(C)n2)c1OC [SHR8751] in the records?
Reply: > 30 µM

Task item: Which value of IC50 has been reported for CNC(=O)c1nnc(NC(=O)C2CC2)c2[nH]c(-c3ccccc3OC)cc12 [SHR2178] in the records?
Reply: 30 µM

###

Here, each record is paired with measured Kd data.
# SYSTEM: TYK2 JH1 kinase domain (Homo sapiens)
# Construct: purchased Eurofins DiscoverX Corporation (contract assay)
# Sequence (P29597 897-1176 limits assumed): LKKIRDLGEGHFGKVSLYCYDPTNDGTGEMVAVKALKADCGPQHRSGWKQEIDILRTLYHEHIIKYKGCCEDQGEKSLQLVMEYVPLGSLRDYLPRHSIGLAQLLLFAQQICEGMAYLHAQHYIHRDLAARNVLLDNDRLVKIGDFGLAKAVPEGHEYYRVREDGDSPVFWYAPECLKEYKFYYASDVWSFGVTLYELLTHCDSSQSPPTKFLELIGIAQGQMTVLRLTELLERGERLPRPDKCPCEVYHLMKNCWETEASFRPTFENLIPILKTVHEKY
# EXPERIMENTAL DETAILS: KdELECT competition binding assay, TYK2 JH1
# CONDITION PARAMETERS: isolated TYK2 JH1 domain

Worked set:
MOLECULE | SYSTEM | Kd
CNC(=O)c1nnc(NC(=O)C2CC2)c2[nH]c(-c3ccc(N)cc3OC)cc12 [SHR2396] | TYK2 JH1 kinase domain (Homo sapiens) | 0.3 µM
CNC(=O)c1nnc(NC(=O)C2CC2)c2[nH]c(-c3ccccc3OC)cc12 [SHR2178] | TYK2 JH1 kinase domain (Homo sapiens) | > 20 µM
CNC(=O)c1nnc(NC(=O)N2CCC2)cc1Nc1cccc(-c2ncn(C)n2)c1OC [SHR8751] | TYK2 JH1 kinase domain (Homo sapiens) | > 20 µM

Consider the additional molecule presented here.
Task item: Which value of Kd has been reported for [2H]C([2H])([2H])NC(=O)c1nnc(NC(=O)N2CCC2)cc1Nc1cccc(-c2ncn(C)n2)c1OC [SHR9332] in the records?
Reply: > 20 µM

###

Here, each record is paired with measured IC50 data.
# System: JAK2-dependent EPO-induced phosphorylation of STAT5 (Tyr694/699) in TF1 cells
# EXPERIMENTAL DETAILS: JAK cellular selectivity assay, EPO-pSTAT5 (JAK2)
# Type: cell-based, human
# CONDITION PARAMETERS: Homo sapiens, TF-1; TF1 cells; read-out: JAK Cellular Selectivity (IC50) EPO-pSTAT5 (JAK2)
# Method: The cells were then ready for the assay after incubating for 2 hours in a humidified, 5% CO2 cell culture incubator at 37°C. […] The curve fit was generated, and statistical analysis was performed using GraphPad Prism. IC50 values were derived by non-linear regression analysis and defined as the compound concentration at which the response level was reduced to half of its maximum relative to a DMSO control.

Worked set:
INPUT SMILES | SYSTEM | IC50
[2H]C([2H])([2H])NC(=O)c1nnc(NC(=O)N2CCC2)cc1Nc1cccc(-c2ncn(C)n2)c1OC | JAK2-dependent EPO-induced phosphorylation of STAT5 (Tyr694/699) in TF1 cells | > 10 µM
CNC(=O)c1nnc(NC(=O)N2CCC2)cc1Nc1cccc(-c2ncn(C)n2)c1OC | JAK2-dependent EPO-induced phosphorylation of STAT5 (Tyr694/699) in TF1 cells | > 10 µM

Consider the additional compound presented here.
Task item: Which value of IC50 has been reported for CNC(=O)c1nnc(NC(=O)C2CC2)c2[nH]c(-c3ccc(N)cc3OC)cc12 in the records?
Reply: > 10 µM

All figures here come from paper PMC9186491.
